# PROTOCOL_TEXT: physchem
# CONDITIONS_USED: water

[
  {
    "MOLECULE": "O=C(OC[C@H]1O[C@@H](OC(=O)c2cc(O)c(O)c(OC(=O)c3cc(O)c(O)c(O)c3)c2)[C@H](OC(=O)c2cc(O)c(O)c(OC(=O)c3cc(O)c(O)c(O)c3)c2)[C@@H](OC(=O)c2cc(O)c(O)c(OC(=O)c3cc(O)c(O)c(O)c3)c2)[C@@H]1OC(=O)c1cc(O)c(O)c(OC(=O)c2cc(O)c(O)c(O)c2)c1)c1cc(O)c(O)c(OC(=O)c2cc(O)c(O)c(O)c2)c1 [Tannic acid]",
    "solubility [µg/mL]": 10000
  }
]

###

# PROTOCOL_TEXT: physchem
# CONDITIONS_USED: organic solvent or mixture
This section presents compounds with their documented solubility values.
OBSERVATION_TYPE: solubility (µg/mL)

[
  {
    "COMPOUND": "COc1cc(/C=C/C(=O)/C=C(O)/C=C/c2ccc(O)c(OC)c2)ccc1O",
    "OBSERVATION_TYPE": "solubility",
    "QUANTITY_UNIT": "µg/mL",
    "EXPERIMENTAL_RESULT": 5000
  },
  {
    "COMPOUND": "O=C1C[C@@](O)(C(=O)O)C(C(=O)O)O1 (stereo partly shown)",
    "OBSERVATION_TYPE": "solubility",
    "QUANTITY_UNIT": "µg/mL",
    "EXPERIMENTAL_RESULT": 10000
  },
  {
    "COMPOUND": "CC1=C(/C=C/C(C)=C/C=C/C(C)=C/C=C/C=C(C)/C=C/C=C(C)/C=C/C2=C(C)C[C@@H](O)CC2(C)C)C(C)(C)C[C@H](O)C1",
    "OBSERVATION_TYPE": "solubility",
    "QUANTITY_UNIT": "µg/mL",
    "EXPERIMENTAL_RESULT": 2000
  },
  {
    "COMPOUND": "O=C(/C=C/c1ccc(O)c(O)c1)OCCc1ccccc1",
    "OBSERVATION_TYPE": "solubility",
    "QUANTITY_UNIT": "µg/mL",
    "EXPERIMENTAL_RESULT": 10000
  },
  {
    "COMPOUND": "C/C=C1/[C@H](O[C@@H]2O[C@H](CO)[C@@H](O)[C@H](O)[C@H]2O)OC=C(C(=O)OC)[C@H]1CC(=O)OCCc1ccc(O)c(O)c1",
    "OBSERVATION_TYPE": "solubility",
    "QUANTITY_UNIT": "µg/mL",
    "EXPERIMENTAL_RESULT": 10000
  },
  {
    "COMPOUND": "O=C1c2cccc(O)c2C(=O)c2c(O)cc(CO)cc21",
    "OBSERVATION_TYPE": "solubility",
    "QUANTITY_UNIT": "µg/mL",
    "EXPERIMENTAL_RESULT": 10000
  },
  {
    "COMPOUND": "Oc1ccc(/C=C/c2cc(O)cc(O)c2)cc1",
    "OBSERVATION_TYPE": "solubility",
    "QUANTITY_UNIT": "µg/mL",
    "EXPERIMENTAL_RESULT": 10000
  },
  {
    "COMPOUND": "CC(C)=CCC/C(C)=C/C=C/C(C)=C/C=C/C(C)=C/C=C/C=C(C)/C=C/C=C(C)/C=C/C=C(\\C)CCC=C(C)C",
    "OBSERVATION_TYPE": "solubility",
    "QUANTITY_UNIT": "µg/mL",
    "EXPERIMENTAL_RESULT": 1000
  },
  {
    "COMPOUND": "C[n+]1cc2c3c(ccc2c2ccc4cc5c(cc4c21)OCO5)OCO3.[Cl-] [Sanguinarine chloride hydrate]",
    "OBSERVATION_TYPE": "solubility",
    "QUANTITY_UNIT": "µg/mL",
    "EXPERIMENTAL_RESULT": 3330
  },
  {
    "COMPOUND": "CCCCCCCCC[C@H](O)CC(=O)CCc1ccc(O)c(OC)c1",
    "OBSERVATION_TYPE": "solubility",
    "QUANTITY_UNIT": "µg/mL",
    "EXPERIMENTAL_RESULT": 10000
  }
]
